Experiment: qHTS of pediatric cancer cell lines to identify multiple opportunities for drug repurposing: Primary screen for Rh18 cells (AID 1347102); further: nearly all actives have a fitted effect of over 65% in size
Settings: Rh18 rhabdomyosarcoma viability, CellTiter-Glo luminescence, 48 h; series mostly up to 46 µM
Inconclusive results are not listed. The source made the active and inactive calls. The call rests on the fitted dose curve; in most records, active means well fitted cell-killing curve with a large enough effect; inconclusive means small, poorly fitted or top-dose-only effect; inactive means flat fitted curve, though single readings scatter.
Possible outcomes: True = active, False = inactive

molecule | assigned_class
CCN1C[C@]2(OC(=O)c3ccccc3NC(C)=O)CC[C@H](OC)[C@@]34[C@H]5CC6[C@@H](OC)C[C@](O)(C(C[C@@H]23)[C@@H]14)[C@@]5(O)[C@@H]6OC | False
Oc1ccc2c3c1O[C@H]1c4[nH]c5c(c4C[C@@]4(O)[C@@H](C2)N(CC2CC2)CC[C@]314)C[C@@]1(O)[C@H]2Cc3ccc(O)c4c3[C@@]1(CCN2CC1CC1)[C@H]5O4 | False
C[C@]12CC[C@H]3[C@@H](CCC4=CC(=O)CC[C@@]43C)[C@H]1CC[C@H]2O | False
C[C@H]1CCCC=CC2C[C@H](O)C[C@@H]2[C@H](O)C=CC(=O)O1 (some centres undefined) | True
O=C(O)CNC(=O)c1c(O)c2ccccc2n(Cc2ccccc2)c1=O | False
O=[N+]([O-])c1ncc[nH]1 | False
CCOP(=O)(NC(C)C)Oc1ccc(SC)c(C)c1 (centres undefined) | False
Nc1ccc(Sc2ccc(N)cc2)cc1 | False
Nc1ccc(Cl)cc1N | False

* * *

System: CP238
Test: qHTS profiling for inhibitors of Plasmodium falciparum proliferation (AID 504749); further: nearly all actives have a fitted effect of over 60% in size
Settings: P. falciparum in erythrocytes, SYBR Green DNA, 72 h; series mostly up to 28.7 µM
Results filed as inconclusive are left out. Active and inactive are the calls of the source. The call rests on the fitted dose curve; in most records, active means well fitted inhibition curve with a large enough effect; inconclusive means small, poorly fitted or top-dose-only effect; inactive means flat fitted curve, though single readings scatter.
Outcome codes: class 1 = active, class 0 = inactive

molecule | assigned_class
O=[N+]([O-])c1ccc([As](=O)(O)O)cc1 | class 1
CCCCCCCCCC(CC)c1ccc(S(=O)(=O)O)cc1 (stereo not given) | class 0
CC(C)NC(C)Cc1ccc(I)cc1 (stereo not given) | class 0
CCCN1CCC[C@H](c2cccc(O)c2)C1 | class 0
O=C(O)C(Cl)Cl | class 0
Cc1ccc(Cl)c(O)c1 | class 0
C#CC1(O)CCC2C3CCC4=CC(=O)CCC4(C)C3CCC21C (stereo not given) | class 0
C[C@]12CCC(=O)C(O)=C1CC[C@@H]1[C@H]3CCC(=O)[C@@]3(C)CC[C@@H]12 | class 0
CN1C2CCC1CC(OC(=O)c1cc(Cl)cc(Cl)c1)C2 (stereo not given) | class 0
CN[C@@H]1C[C@@H](c2ccc(Cl)c(Cl)c2)c2ccccc21 | class 0
C=CCN1CC[C@]23CCCCC2[C@H]1Cc1ccc(O)cc13 (stereo not given in full) | class 0
Cc1cc(O)ccc1Cl | class 0
COC(=O)[C@@H](N)CCCN=C(N)N[N+](=O)[O-] | class 0
O=C(O)COc1ccccc1 | class 0
C1CCC(NC2CCCCC2)CC1 | class 0

* * *

Test: Immunotoxin (HA22) sensitization/mitigation study. Vehicle arm (PBS) (AID 1159510)
Settings: cancer cells viability with PBS vehicle (HA22 study); series mostly up to 46.1 µM
Calls of active or inactive are those of the source. How the calls were made is not given here.
Outcomes: yes (1) = active, no (0) = inactive

molecule | assigned_class
Clc1ccc2ncc(-c3cccc(NC4CNC4)n3)n2c1 | yes (1)
O=S(=O)(N=Cc1c(O)ccc2ccccc12)c1cccs1 | yes (1)
O=C(C1CC1)N1CC[C@@H](Cn2c(-c3ccc(-c4ccc5occc5c4)cc3)nc3cnccc32)C1 | yes (1)
Cc1cnc(-c2cnc(NCCNc3ccc(C#N)cn3)nc2-c2ccc(Cl)cc2Cl)[nH]1 | yes (1)
COc1ccc(C2=N[C@H](c3ccc(Cl)cc3)[C@H](c3ccc(Cl)cc3)N2C(=O)N2CCNC(=O)C2)c(OC(C)C)c1 | yes (1)
Cc1ccnc(NS(=O)(=O)c2ccc(NC(=O)Nc3ccc(S(=O)(=O)Nc4nccc(C)n4)cc3)cc2)n1 | yes (1)
COc1cccc2c1CCCC2CCCN1CCN(C2CCCCC2)CC1 (centres undefined) | yes (1)
COc1ccc2c(c1)CC[C@@H](CN(C)CC(=O)O)[C@H]2c1ccccc1 | no (0)
c1ccc2c(-c3cnn4cc(-c5ccc(N6CCNCC6)cc5)cnc34)ccnc2c1 | yes (1)
CCc1cc(Nc2nccc(-c3c(-c4ccc(OC)c(C(=O)Nc5c(F)cccc5F)c4)nc4ccccn34)n2)c(OC)cc1N1CCC(N2CCN(S(C)(=O)=O)CC2)CC1 | yes (1)
CN(C)Cc1ccc(-c2nc3cccc4c3n2CCNC4=O)cc1 | yes (1)
C[C@@H](Oc1cc(-n2cnc3ccc(CN4CCN(C)CC4)cc32)sc1C(N)=O)c1ccccc1C(F)(F)F | yes (1)
Nc1nc(-c2nn(Cc3ccccc3F)c3ncccc23)nc(N)c1N1CCOCC1 | no (0)
Cn1cncc1[C@@](N)(c1ccc(Cl)cc1)c1ccc2c(c1)c(-c1cccc(Cl)c1)cc(=O)n2C | yes (1)
c1ccc(-c2nn3c(c2-c2ccnc4cc(OCCN5CCOCC5)ccc24)CCC3)nc1 | yes (1)
CC(=O)NC(C)c1ccc(Oc2ccc(OC(C)C)cc2)cc1 (centres undefined) | yes (1)
COCC(=O)NCC=Cc1ccc2ncnc(Nc3ccc(Oc4ccc(C)nc4)c(C)c3)c2c1 | yes (1)
CS(=O)(=O)c1ccc(C(=O)Nc2ccc(Cl)c(-c3ccccn3)c2)c(Cl)c1 | no (0)
Cc1nc(N)sc1-c1ccnc(Nc2ccc(N3CCOCC3)cc2)n1 | yes (1)

The reported measurements were obtained from PubChem BioAssay (NCATS).
